Data provenance is ChEMBL document CHEMBL1124042.

Test system: Mus musculus
Experiment: Inhibition of locomotor activity in mouse after intraperitoneal administration
Assay type: functional
Settings: Mus musculus, ip; read-out: ED50
Rule: measured ED50 below 40 mg/kg gets T; anything equal to or greater than 40 mg/kg gets F.

CCn1nc(C)c2c1C1=NCCN1C(C)=N2; T
CCc1nc2c(C)nn(C)c2c2nc(C)c(Cl)n12; F
CCC1=Nc2c(C)nn(CC)c2C2=NC(C)CN12 (stereo not given); T
CC[C@H]1CN2C(C)=Nc3c(C)nn(C)c3C2=N1; F
Cc1nn(C)c2c1nc(C)n1cc(Cc3ccccc3)nc21; F

Consider the record given below.
Q. Bench note: check whether CCCn1nc(C)c2c1C1=NC(C)CN1C(C)=N2 (stereo not given) shows ED50 below 40 mg/kg
A. T
